Measured values drawn from the supplement of paper PMC7600603 for this set.

Test system: DLD1 NRF2-GOF
Test: drug sensitivity score (DSS) cytotoxicity (DSS score); higher = more toxic; extreme values may be limits of the assay
Details: 72 h; CellTox Green cytotoxicity
MEASUREMENT_TYPE: drug sensitivity score

Sample `CO[C@H]1C(=O)[C@]2(C)[C@@H](OC)C[C@H]3OC[C@@]3(OC(C)=O)[C@H]2[C@H](OC(=O)c2ccccc2)[C@]2(O)C[C@H](OC(=O)[C@H](O)[C@@H](NC(=O)OC(C)(C)C)c3ccccc3)C(C)=C1C2(C)C` , system: DLD1 NRF2-GOF. Its drug sensitivity score is 0.3

Lab entry: DLD1 NRF2-GOF assay, molecule `N[C@@H]1CCCN(c2c(/C=C3\SC(=O)NC3=O)cccc2-c2ccccc2)C1` , drug sensitivity score = 0

For `CC(C)(O)CNc1nc(Nc2ccnc(C(F)(F)F)c2)nc(-c2cccc(C(F)(F)F)n2)n1` on DLD1 NRF2-GOF, measured drug sensitivity score was 0

Response field drug sensitivity score (DLD1 NRF2-GOF) for item `COc1ccc(S(=O)(=O)Nc2cccnc2Nc2ccc(O)cc2)cc1` : 3.6

So the reported drug sensitivity score for `O=C(O)CC[C@H]1CC[C@@](c2cc(F)ccc2F)(S(=O)(=O)c2ccc(Cl)cc2)CC1` , on DLD1 NRF2-GOF, turned out to be 0

Test item `Cn1cc(C[C@@H](N)C(=O)O)c2ccccc21` ; DLD1 NRF2-GOF; reported drug sensitivity score was 0

// molecule `CC(C)(C)Cn1c(N)nc2ccc(-c3[nH]c(C(C)(C)C)nc3-c3ccc(F)cc3)nc21` , assay DLD1 NRF2-GOF, drug sensitivity score value: 0
